# tested system: T1, SHIP2-SH2 S27A (human, UniProt O15357 20-117, S27A)
# T1 sequence (looked up): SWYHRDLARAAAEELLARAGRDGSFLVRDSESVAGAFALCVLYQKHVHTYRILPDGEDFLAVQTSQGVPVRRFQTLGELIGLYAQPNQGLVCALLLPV
# assay info: fluorescence polarisation
Non-standard residues stand in square brackets, D forms with d. No end group written: not given here. FAM = fluorescent label on the peptide N-terminus (FAM, not expanded in the evidence); pY = N[C@@H](Cc1ccc(OP(=O)(O)O)cc1)C(=O)O
reported metric: Kd (µM)

INSERT INTO results (binder, recorded_measurement) VALUES
  ('{FAM}-NAT[pY]VNVK [FAM-labeled c-MET peptide (1353-1360) with Y1356 phosphorylated, FAM-N-A-T-pY-V-N-V-K]', 7.3);

Values from paper PMC6251712
